- TEST NAME: Drug-drug interaction study with itraconazole
- Format: in vivo, humans
- EXPERIMENTAL CONTEXT: both sexes, human, plasma, oral; Etrumadenant Alone, 150 mg; arithmetic mean ± SD; read-out: t½ (converted)
REPORTED PROPERTY: half-life (h)
Value expressed in h; do not type the unit.

// returns reported half-life for input Cc1c(C#N)cccc1-c1cc(-c2cn(Cc3cccc(C(C)(C)O)n3)nn2)nc(N)n1
29.9

---

- TEST NAME: Drug-drug interaction study with itraconazole
- Format: in vivo, humans
- EXPERIMENTAL CONTEXT: both sexes, human, plasma, oral; Etrumadenant Alone, 150 mg; arithmetic mean ± SD; read-out: Vz/F
- Text: An open-label, fixed-sequence, 2-period drug-drug interaction (DDI) study was designed to evaluate the effect of multiple doses of a strong inhibitor of CYP3A4 and P-gp on the single-dose PK of etrumadenant in humans. […] Participants were housed on Day −1 of Period 1, at the time indicated by the clinical research unit (CRU), until after the 120-hour blood draw and completion of study procedures in Period 2. Safety was monitored throughout the study by repeated clinical and laboratory evaluations. […]
REPORTED PROPERTY: Vd/F (L)
Value expressed in L; do not type the unit.

// returns reported Vd/F for input Cc1c(C#N)cccc1-c1cc(-c2cn(Cc3cccc(C(C)(C)O)n3)nn2)nc(N)n1
172
